So I've got a bunch of binders here, and I need their Binding affinity (RU) values.
Molecular target: acetylcholine receptor
Assay: SPR, AchR immobilized on CM5 chip, peptide at 10 uM
Numbers only, in RU.

Examples with their reported Binding affinity (RU) follow.
RHTIR [5mer-709]
27
RDWFK [5mer-1041]
27
RWRYRR [6mer-2-365]
121
KRHTGK [6mer-1-823]
12
KRLSRR [6mer-2-371]
148

Respectfully, I request Binding affinity (RU) for each entry included below.
1. KMDAR [5mer-727]
2. KTKFK [5mer-999]

Data returned:
31
19
